biological target: Nuclear receptor coactivator 1 (Homo sapiens); assay: SRC1 coactivator transcriptional activity inhibitors, confirmation, cell-based, luminescence, quadruplicate (AID 588820); settings: HEK293 GAL4-SRC1 luciferase reporter, at 3.6 µM, hits give high values;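 further: 0% = DMSO wells and 100% = gossypol 36 µM treated wells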
Decision: inhibition >= 30% yields 1.0, all other cases yield 0.0.

COMPOUND: C=C1C(=O)O[C@@H]2C[C@@H](C)[C@@H]3C=CC(=O)[C@@]3(C)[C@@H](OC(=O)CC(=O)O[C@H]3[C@@H]4C(=C)C(=O)O[C@@H]4C[C@@H](C)[C@@H]4C=CC(=O)[C@]43C)[C@H]12
TESTED SYSTEM: Nuclear receptor coactivator 1 (Homo sapiens)
GROUP LABEL: 1.0
--
COMPOUND: C[C@]12CC[C@H](O)C[C@H]1CC[C@@H]1[C@@H]2C[C@@H](O)[C@]2(C)[C@@H](C3=CC(=O)OC3)CC[C@]12O
TESTED SYSTEM: Nuclear receptor coactivator 1 (Homo sapiens)
GROUP LABEL: 0.0
--
COMPOUND: O=c1[nH]c2ccccc2n1C1CCN(C(c2ccccc2OC(F)(F)F)c2nnnn2Cc2ccccc2)CC1 (stereo not drawn)
TESTED SYSTEM: Nuclear receptor coactivator 1 (Homo sapiens)
GROUP LABEL: 0.0
--
COMPOUND: Clc1ccc(C[n+]2c(-c3ccccc3)cc(-c3ccccc3)cc2-c2ccccc2)cc1
TESTED SYSTEM: Nuclear receptor coactivator 1 (Homo sapiens)
GROUP LABEL: 1.0
--
COMPOUND: C=CCn1c(O)c(C(C)=NCc2cc(OC)cc(OC)c2)c(=O)[nH]c1=O
TESTED SYSTEM: Nuclear receptor coactivator 1 (Homo sapiens)
GROUP LABEL: 1.0
--
COMPOUND: COc1ccc(-n2nnnc2C(c2ccccc2)N2CCC(n3c(=O)[nH]c4ccccc43)CC2)cc1 (stereo not drawn)
TESTED SYSTEM: Nuclear receptor coactivator 1 (Homo sapiens)
GROUP LABEL: 0.0
--
COMPOUND: CN1CCN(c2cc(N3CCCCCC3)c(F)cc2[N+](=O)[O-])CC1
TESTED SYSTEM: Nuclear receptor coactivator 1 (Homo sapiens)
GROUP LABEL: 0.0
--
COMPOUND: Cc1cccc(C)c1-n1nnnc1C(CCc1ccccc1)N1CCC(n2c(=O)[nH]c3ccccc32)CC1 (stereo not drawn)
TESTED SYSTEM: Nuclear receptor coactivator 1 (Homo sapiens)
GROUP LABEL: 0.0
--
COMPOUND: N=c1c2c(n(Cc3ccc(Cl)cc3Cl)c3c1CCC3)CCCC2
TESTED SYSTEM: Nuclear receptor coactivator 1 (Homo sapiens)
GROUP LABEL: 1.0
--
COMPOUND: Cc1cccc(C)c1-n1nnnc1C(c1cc2ccccc2o1)N1CCC(n2c(=O)[nH]c3ccccc32)CC1 (stereo not drawn)
TESTED SYSTEM: Nuclear receptor coactivator 1 (Homo sapiens)
GROUP LABEL: 0.0
--
COMPOUND: COc1ccc(CC2C(=O)NC(C)C(=O)N(C)C3C(=O)N(C)C(Cc4ccc(O)c(c4)Oc4ccc(cc4)C3O)C(=O)NC(C)C(=O)NC(C)C(=O)N2C)cc1 (stereo not drawn)
TESTED SYSTEM: Nuclear receptor coactivator 1 (Homo sapiens)
GROUP LABEL: 1.0
--
COMPOUND: CCC(C)C(NC(=O)CCCNC(=O)CCC(=O)OC1O[C@H]2OC3(C)CC[C@H]4[C@H](C)CCC(C1C)C24OO3)C(=O)O (stereo partly drawn)
TESTED SYSTEM: Nuclear receptor coactivator 1 (Homo sapiens)
GROUP LABEL: 1.0
--
COMPOUND: CN1CCN(c2ccc([N+](=O)[O-])c3no[n+]([O-])c23)CC1
TESTED SYSTEM: Nuclear receptor coactivator 1 (Homo sapiens)
GROUP LABEL: 1.0
--
COMPOUND: O=[N+]([O-])c1ccc(N2CCOCC2)c2c1no[n+]2[O-]
TESTED SYSTEM: Nuclear receptor coactivator 1 (Homo sapiens)
GROUP LABEL: 0.0
--
COMPOUND: CN1CCN(c2cccc3c2C(=O)c2ccccc2C3=O)CC1
TESTED SYSTEM: Nuclear receptor coactivator 1 (Homo sapiens)
GROUP LABEL: 0.0
--
COMPOUND: CN1CCN(c2ncnc3ccc(Br)cc23)CC1
TESTED SYSTEM: Nuclear receptor coactivator 1 (Homo sapiens)
GROUP LABEL: 1.0
--
COMPOUND: CCC(C)(O)C(=O)OC1C(=O)OC2CC3C(C)=CC(=O)C(O)C3(C)C3C4(O)OCC23C1C(C)C4O (stereo not drawn)
TESTED SYSTEM: Nuclear receptor coactivator 1 (Homo sapiens)
GROUP LABEL: 1.0
--
COMPOUND: O=C(CSC1c2ccccc2-c2ccccc21)N/N=C/c1ccccc1O
TESTED SYSTEM: Nuclear receptor coactivator 1 (Homo sapiens)
GROUP LABEL: 0.0
--
COMPOUND: CC(=O)OC1(C)CC(C)C(=O)C(C(O)CC2CC(=O)NC(=O)C2)C1 (stereo not drawn)
TESTED SYSTEM: Nuclear receptor coactivator 1 (Homo sapiens)
GROUP LABEL: 1.0
--
COMPOUND: N#CC(C#N)=NNc1ccc(-n2ccc(C(F)(F)F)n2)cc1
TESTED SYSTEM: Nuclear receptor coactivator 1 (Homo sapiens)
GROUP LABEL: 1.0
--
COMPOUND: COC(=O)C1=C(c2ccc(-c3ccccc3)c(F)c2)C[C@@H]2CC[C@H]1N2C(=O)NC1CC1
TESTED SYSTEM: Nuclear receptor coactivator 1 (Homo sapiens)
GROUP LABEL: 0.0
--
COMPOUND: CCC1CN2CCc3cc(OC)c(OC)cc3C2CC1CC1NCCc2c1[nH]c1ccc(O)cc21 (stereo not drawn)
TESTED SYSTEM: Nuclear receptor coactivator 1 (Homo sapiens)
GROUP LABEL: 1.0
--
COMPOUND: C[C@]12CC[C@H](O)C[C@H]1CC[C@@H]1[C@@H]2CC[C@]2(C)[C@@H](C3=CC(=O)OC3)CC[C@]12O
TESTED SYSTEM: Nuclear receptor coactivator 1 (Homo sapiens)
GROUP LABEL: 1.0
--
COMPOUND: O=C1NC2C(O)C(O)C(O)C(O)C2c2cc3c(c(O)c21)OCO3 (stereo not drawn)
TESTED SYSTEM: Nuclear receptor coactivator 1 (Homo sapiens)
GROUP LABEL: 1.0
--
COMPOUND: CSCCC(c1nnnn1Cc1ccccc1)N1CCC(n2c(=O)[nH]c3ccccc32)CC1 (stereo not drawn)
TESTED SYSTEM: Nuclear receptor coactivator 1 (Homo sapiens)
GROUP LABEL: 1.0
--
COMPOUND: CCN1CCN(c2ncnc3ccc(Br)cc23)CC1
TESTED SYSTEM: Nuclear receptor coactivator 1 (Homo sapiens)
GROUP LABEL: 1.0

---

biological target: Nuclear receptor coactivator 3 (Homo sapiens); assay: SRC3 coactivator transcriptional activity inhibitors, confirmation, cell-based, luminescence, quadruplicate (AID 588792); conditions: HEK293 GAL4-SRC3 luciferase reporter, at 3.6 µM, hits give high values;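 further: 0% = DMSO treated cells and 100% = gossypol at 36 µM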
inhibition of 80% or higher: Yes. Under 80%: No.

COMPOUND: COc1ccc(-n2nnnc2C(c2cc3ccccc3o2)N2CCC(n3c(=O)[nH]c4ccccc43)CC2)cc1 (centres undefined)
GROUP LABEL: No
--
COMPOUND: O=c1[nH]c2ccccc2n1C1CCN(C(CCc2ccccc2)c2nnnn2Cc2ccccc2)CC1 (centres undefined)
GROUP LABEL: No
--
COMPOUND: CC(N)C(=O)NC1C2C(=C(O)CC(O)C2O)C(=O)OC1(C)C(Cl)Cl (centres undefined)
GROUP LABEL: Yes
--
COMPOUND: C[C@H]1CCC/C=C/[C@@H]2C[C@H](O)C[C@H]2[C@@H](O)/C=C/C(=O)O1
GROUP LABEL: No
--
COMPOUND: Clc1ccc(C[n+]2c(-c3ccccc3)cc(-c3ccccc3)cc2-c2ccccc2)cc1
GROUP LABEL: Yes
--
COMPOUND: CC1=C(N2CC2)C(=O)C(CO)=C(N2CC2)C1=O
GROUP LABEL: Yes
--
COMPOUND: Cc1cc(C)cc(NC2=NCCCS2)c1
GROUP LABEL: No
--
COMPOUND: CC(=O)OC1CC(OC2C(O)CC(OC3C(O)CC(OC4CCC5(C)C(CCC6C5CC(O)C5(C)C(C7=CC(=O)OC7)CCC65O)C4)OC3C)OC2C)OC(C)C1OC1OC(CO)C(O)C(O)C1O (centres undefined)
GROUP LABEL: Yes
--
COMPOUND: Cc1ccc(-c2cc(-c3ccc(C)cc3)[n+](C)o2)cc1
GROUP LABEL: No

---

biological target: Nuclear receptor subfamily 5 group A member 2 (Homo sapiens) (UniProt O00482); test: LRH-1 (NR5A2) inverse agonists, retest, confirmation, cell-based, luminescence (AID 651613); conditions: cell-based LRH-1 luciferase reporter, inverse agonism; at 3.6 µM;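 further: HEK293T cells co-transfected with LRH-1 and StAR promoter luciferase reporter; 0% = vehicle wells and 100% = parental cells lacking receptor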
Sequence (O00482 whole entry, looked up): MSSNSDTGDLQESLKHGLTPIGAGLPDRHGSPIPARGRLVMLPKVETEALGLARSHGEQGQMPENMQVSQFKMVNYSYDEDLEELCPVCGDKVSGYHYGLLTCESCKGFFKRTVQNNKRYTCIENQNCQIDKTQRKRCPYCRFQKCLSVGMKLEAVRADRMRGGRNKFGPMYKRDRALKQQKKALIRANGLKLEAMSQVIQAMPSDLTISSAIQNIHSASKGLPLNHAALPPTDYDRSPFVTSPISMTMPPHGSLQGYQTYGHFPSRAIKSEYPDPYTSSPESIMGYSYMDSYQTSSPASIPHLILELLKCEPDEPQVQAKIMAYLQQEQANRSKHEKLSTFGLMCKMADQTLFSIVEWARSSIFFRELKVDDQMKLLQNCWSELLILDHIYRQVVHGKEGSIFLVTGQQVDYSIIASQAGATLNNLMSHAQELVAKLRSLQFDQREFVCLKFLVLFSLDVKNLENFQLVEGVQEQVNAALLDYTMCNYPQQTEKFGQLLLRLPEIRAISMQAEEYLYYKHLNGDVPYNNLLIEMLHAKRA
Activity calls are given as the source filed them. Cut-off read from the data, not from the text of the source: active = inhibition above about 42%; inactive = the rest.
Outcomes: TRUE for active, FALSE for inactive

COMPOUND: N#Cc1cn(C2OC(CO)C(O)C2O)c2ncnc(N)c12 (stereo unspecified)
GROUP LABEL: TRUE
//
COMPOUND: O=[N+]([O-])c1ccc(N2CCOCC2)c2c1no[n+]2[O-]
GROUP LABEL: TRUE
//
COMPOUND: COC(=O)C12CCc3c(ccc4cc(OC)ccc34)C1=CC(=O)C2 (stereo unspecified)
GROUP LABEL: FALSE
//
COMPOUND: C[C@]12CC[C@H](O)C[C@H]1CC[C@@H]1[C@@H]2C[C@@H](O)[C@]2(C)[C@@H](C3=CC(=O)OC3)CC[C@]12O
GROUP LABEL: TRUE
//
COMPOUND: Cc1nn(Cc2ccccc2)c(C)c1C(=O)OCC(=O)Nc1ccccc1SCC#N
GROUP LABEL: TRUE
//
COMPOUND: O=C1NC2C(=CC(O)C(O)C2O)c2cc3c(cc21)OCO3 (stereo unspecified)
GROUP LABEL: TRUE

The origin of these recorded values is PubChem BioAssay.
